# protocol.details: Oral bioavailability in Sprague-Dawley rat at 15.7 mg/kg
# Type: ADME, organism-based
# setup.conditions: in vivo
experimental.endpoint: bioavailability (%)

>>> observed_value("CC(C)Oc1ncc(C(O)(c2cccnc2)c2ccc(Cl)cc2F)cn1 (racemic)")
7.4

====

# protocol.details: Blood Clearance in Sprague-Dawley rat at 4.8 mg/kg, iv
# Type: ADME, organism-based
# Set-up: dose 4.8 mg/kg, route intravenous
# setup.conditions: whole blood
experimental.endpoint: clearance (mL/min/kg)

>>> observed_value("CC(C)Oc1ncc(C(O)(c2cccnc2)c2ccc(Cl)cc2F)cn1 (racemic)")
73.9

====

# protocol.details: Plasma concentration in Swiss mouse at 10 mg/kg, po after 1 hr
# Assay type: ADME, organism-based
# Set-up: dose 10 mg/kg, route oral
experimental.endpoint: concentration at 1 h (µM)

>>> observed_value("NC(=O)c1cccc(C(O)(c2ccc(Cl)cc2)c2cccnc2)c1 (racemic)")
6.8

These data points were gathered from ChEMBL document CHEMBL2057177.
